system: AB ATCC 17978; test: Broth microdilution antimicrobial susceptibility assay, susceptible isolate; details: Acinetobacter baumannii, ATCC17978, read-out: MIC, AB ATCC 17978
MIC for assorted compounds
The reply should contain only the number, in µg/mL.

Please review the following examples before continuing.
compound | obs.value
c1ccc(CSc2ncc(-c3ccccc3)cc2CNCc2ccc(CN3CCCC3)cc2)cc1 | 32
COc1ccc(-c2cnc(SCc3ccccc3)c(CNCCC3CCN(C4CCCC4)CC3)c2)cc1 | 16
c1ccc(CSc2ncc(-c3ccccc3)cc2CNCCC2CCN(C3CCCC3)CC2)cc1 | 64

Consider now this further compound.
Exercise: Supply recorded MIC for CNC(C)C1CCC(N)C(OC2C(N)CC(N)C(OC3OCC(C)(O)C(NC)C3O)C2O)O1 (stereo not shown) [Gentamicin, reference compound] here.
Solution: 8

---

test system: HEK 293 cells; assay: XTT cell viability cytotoxicity assay; settings: n = 3, 24 h treatment
Recorded MIC, HEK 293 (cytotoxicity) by entry
Write the value in µg/mL as a bare number.

Use these answered entries as a reference point.
compound | test.target | obs.value
CCN1CCC(CCNCc2cc3cc(-c4ccccc4)ccc3nc2SCc2ccccc2)CC1 [WSA 261, reference compound] | HEK 293 cells | 8
CN1CCN(CCNCc2cc(-c3ccc(N(C)C)cc3)cnc2SCc2ccccc2)CC1 | HEK 293 cells | 16
CCN1CCC(CCNCc2cc(-c3ccc(C)cc3)cnc2SCc2ccccc2)CC1 | HEK 293 cells | 4
CCN1CCC(CCNCc2cc(-c3ccc(F)cc3F)cnc2SCc2ccccc2)CC1 | HEK 293 cells | 16

Exercise: Tell me MIC, HEK 293 (cytotoxicity) reported for "Fc1ccc(-c2cnc(SCc3ccccc3)c(CNCc3ccc(CN4CCCC4)cc3)c2)cc1"
Solution: 16

Exercise: Return reported MIC, HEK 293 (cytotoxicity). Input compound: "c1ccc(CSc2ncc(-c3ccccc3)cc2CNCc2ccc(CN3CCCC3)cc2)cc1"
Solution: 8

Exercise: Output measured MIC, HEK 293 (cytotoxicity) for this item: "Fc1ccc(-c2cnc(SCc3ccccc3)c(CNCc3ccc(CN4CCCC4)cc3)c2)c(F)c1"
Solution: 16

Exercise: For "COc1ccc(-c2cnc(SCc3ccccc3)c(CNCc3ccc(CN4CCCC4)cc3)c2)cc1F" , write its MIC, HEK 293 (cytotoxicity).
Solution: 8

Exercise: Read the entry "Brc1cnc(SCc2ccccc2)c(CNCCC2CCN(C3CCCC3)CC2)c1" and write its reported MIC, HEK 293 (cytotoxicity).
Solution: 16

Exercise: Indicate the recorded MIC, HEK 293 (cytotoxicity) value for this compound: "COc1ccc(-c2cnc(SCc3ccccc3)c(CNCCC3CCN(C4CCCC4)CC3)c2)cc1"
Solution: 16

Exercise: Tell me its MIC, HEK 293 (cytotoxicity) given "CCN1CCC(CCNCc2cc(-c3ccc(OC)c(F)c3)cnc2SCc2ccccc2)CC1" as the entry.
Solution: 16

Exercise: Identify the reported MIC, HEK 293 (cytotoxicity) for the following entry. "CN1CCN(CCNCc2cc(Br)cnc2SCc2ccccc2)CC1"
Solution: 64

Exercise: Item "CN1CCN(CCNCc2cc(-c3ccccc3)cnc2SCc2ccccc2)CC1" : provide MIC, HEK 293 (cytotoxicity)
Solution: 16

Exercise: Look up and report measured MIC, HEK 293 (cytotoxicity) for this entry: "Brc1cnc(SCc2ccccc2)c(CNCc2ccc(CN3CCCC3)cc2)c1"
Solution: 64

---

tested on: AB ATCC 17978; assay: Broth microdilution antimicrobial susceptibility assay, susceptible isolate; conditions: Acinetobacter baumannii, ATCC17978, read-out: MIC, AB ATCC 17978
readout.label: MIC (µg/mL)
Form entry: value (µg/mL) — number only.

Worked cases, answers included:
compound | unit.annotation | MIC
CCN1CCC(CCNCc2cc(Br)cnc2SCc2ccccc2)CC1 [WSA 272] | µg/mL | 128
CCN1CCC(CCNCc2cc(-c3ccc(F)cc3F)cnc2SCc2ccccc2)CC1 [WSA 308] | µg/mL | 32
COc1ccc(-c2cnc(SCc3ccccc3)c(CNCCC3CCN(C4CCCC4)CC3)c2)cc1F [WSA 290] | µg/mL | 32
COc1ccc(-c2cnc(SCc3ccccc3)c(CNCc3ccc(CN4CCCC4)cc3)c2)cc1F [WSA 297] | µg/mL | 32
Cc1ccc(-c2cnc(SCc3ccccc3)c(CNCc3ccc(CN4CCCC4)cc3)c2)cc1 [WSA 295] | µg/mL | 32

Exercise: Look up and report MIC, with AB ATCC 17978 as system, for CCN1CCC(CCNCc2cc3cc(-c4ccccc4)ccc3nc2SCc2ccccc2)CC1 [WSA 261, reference compound]
Solution: 8

Exercise: Please report the measured MIC for Brc1cnc(SCc2ccccc2)c(CNCCC2CCN(C3CCCC3)CC2)c1 [WSA 301] tested on AB ATCC 17978.
Solution: 128

---

system: AB ATCC 17978; test: Checkerboard assay with colistin sulfate, ATCC 17978; conditions: Acinetobacter baumannii, ATCC17978, read-out: MIC alone, AB ATCC 17978
MIC values by entry
A number alone suffices; assume µg/mL.

Guide cases for MIC, answers given:
compound | unit.annotation | MIC
Cc1ccc(-c2cnc(SCc3ccccc3)c(CNCCN3CCN(C)CC3)c2)cc1 | µg/mL | 16
Fc1ccc(-c2cnc(SCc3ccccc3)c(CNCc3ccc(CN4CCCC4)cc3)c2)cc1 | µg/mL | 16

Exercise: Read the entry "CN1CCN(CCNCc2cc(-c3ccc(N(C)C)cc3)cnc2SCc2ccccc2)CC1" and write its reported MIC.
Solution: 16

Exercise: Retrieve MIC measured for "Cc1ccc(-c2cnc(SCc3ccccc3)c(CNCCC3CCN(C4CCCC4)CC3)c2)cc1" and print it.
Solution: 16

Exercise: Tell us which MIC value is on record for "COc1ccc(-c2cnc(SCc3ccccc3)c(CNCCC3CCN(C4CCCC4)CC3)c2)cc1"
Solution: 16

Exercise: Using the record for CCN1CCC(CCNCc2cc3cc(-c4ccccc4)ccc3nc2SCc2ccccc2)CC1 [WSA 261, reference compound] , state its measured MIC.
Solution: 8

---

test system: AB ATCC 17978; experiment: Broth microdilution antimicrobial susceptibility assay, susceptible isolate; conditions: Acinetobacter baumannii, ATCC17978, read-out: MIC, AB ATCC 17978
Documented MIC across a set of compounds
I only need the number, in µg/mL, no unit after it.

compound | unit.annotation | MIC
CCN1CCC(CCNCc2cc(-c3ccccc3)cnc2SCc2ccccc2)CC1 [WSA 304] | µg/mL | 32
CCN1CCC(CCNCc2cc(-c3ccc(OC)cc3)cnc2SCc2ccccc2)CC1 [WSA 305] | µg/mL | 32
Fc1ccc(-c2cnc(SCc3ccccc3)c(CNCCC3CCN(C4CCCC4)CC3)c2)c(F)c1 [WSA 292] | µg/mL | 16

Next compound, please.
Exercise: Using known records, supply MIC for Cc1ccc(-c2cnc(SCc3ccccc3)c(CNCCC3CCN(C4CCCC4)CC3)c2)cc1 [WSA 289]
Solution: 16

---

test system: AB ATCC 17978; assay: Broth microdilution antimicrobial susceptibility assay, susceptible isolate; conditions: Acinetobacter baumannii, ATCC17978, read-out: MIC, AB ATCC 17978
Recorded MIC by entry
Dear colleague, please return just the value in µg/mL, with no unit written.

Exercise: Fill in MIC for record Fc1ccc(-c2cnc(SCc3ccccc3)c(CNCc3ccc(CN4CCCC4)cc3)c2)c(F)c1 [WSA 299]
Solution: 32

---

system: AB ATCC 17978; experiment: Broth microdilution antimicrobial susceptibility assay, susceptible isolate; details: Acinetobacter baumannii, ATCC17978, read-out: MIC, AB ATCC 17978
The entries below are paired with their reported MIC.
Supply the numeric figure in µg/mL, leaving out any unit text.

Exercise: Name the recorded MIC of the compound listed here: "CCN1CCC(CCNCc2cc(-c3ccc(F)cc3)cnc2SCc2ccccc2)CC1"
Solution: 32

Exercise: // fetch MIC given entry "CN1CCN(CCNCc2cc(-c3ccccc3)cnc2SCc2ccccc2)CC1"
Solution: 32

Exercise: Return reported MIC. Input compound: "CCN1CCC(CCNCc2cc(-c3ccc(C)cc3)cnc2SCc2ccccc2)CC1"
Solution: 16

Exercise: Please report the measured MIC for "c1ccc(CSc2ncccc2CNCc2ccc(CN3CCCC3)cc2)cc1"
Solution: 128

Exercise: Quickly give me recorded MIC for "Cc1ccc(-c2cnc(SCc3ccccc3)c(CNCCN3CCN(C)CC3)c2)cc1"
Solution: 16

Exercise: Identify MIC associated with the compound "CN(C)c1ccc(-c2cnc(SCc3ccccc3)c(CNCCC3CCN(C4CCCC4)CC3)c2)cc1"
Solution: 64

Exercise: Please indicate MIC recorded for "Brc1cnc(SCc2ccccc2)c(CNCc2ccc(CN3CCCC3)cc2)c1"
Solution: 32

Exercise: Complete the entry with MIC for "COc1ccc(-c2cnc(SCc3ccccc3)c(CNCCN3CCN(C)CC3)c2)cc1"
Solution: 64

Exercise: Report MIC, nothing else, for this compound: "CN1CCN(CCNCc2cc(-c3ccc(F)cc3F)cnc2SCc2ccccc2)CC1"
Solution: 32
